assayProcedure: activators of adaptive XBP1 UPR arm, primary screen, cell-based, CHO-XBP1 luciferase reporter, luminescence, uHTS (AID 463104)
experimentalConditions: IRE1-XBP1 UPR activation, at 20 µM, percent of tunicamycin response, DMSO as zero
The campaign covered roughly 330,000 compounds. About 1,100 (0.33%) were called active.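 The calls were made as follows: active = versus positive control, 20 µM dose yields 30% or more activation; inactive = the rest.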 This excerpt belongs to a sample that is enriched for actives.
Classes used: active, inactive

>>> df
                                         smi  grouplabel
 0    O=C(COc1ccc(Cl)cc1)Nc1ccc2oc(=O)ccc2c1    inactive
 1         Cc1cc2c(C)nc(N/N=C/c3ccccc3)nc2o1    inactive
 2  O=c1c(Cl)c(NCc2ccc(F)cc2Cl)cnn1C12CC3CC(CC(C3)C1)C2    inactive
 3  C=CCO/N=C(\C)c1c(O)c(C)c(-c2ccccc2)n(-c2ccccc2)c1=O    inactive
 4  C=CC[C@@H](CC(=O)N[C@@H](CO)Cc1ccccc1)C(=O)NCCOC(=O)[C@@H](CC=C)CC(=O)OC(C)(C)C    inactive
 5        Cc1c(C(=O)Nc2ccccn2)oc2ccc(Br)cc12    inactive
 6    Cc1ccc(OCC(=O)Nc2ccc3oc(=O)ccc3c2)cc1C    inactive
 7  O=C(COC(=O)/C=C/c1cn(-c2ccccc2)nc1-c1cccnc1)Nc1ccc(Cl)cc1Cl      active
 8  Cc1cc(NC(=O)CSc2nc3cc(Cl)ccc3c(=O)n2Cc2ccco2)no1      active
 9      Cc1cc(NC(=O)CSc2nnc(-c3ccco3)n2N)no1    inactive
10  COc1ccc(NC(=O)CN(C)C(=O)/C=C/c2cn(Cc3ccccc3)nc2-c2cccnc2)cc1    inactive
11  CCCCCCCCCCOC(=O)Cn1c(COc2cccc(OC)c2)[n+](C)c2ccccc21    inactive
12  Cc1ccnc2nc(C(=O)Nc3nnc(-c4ccccc4)o3)nn12    inactive
13   Cc1ccc(/C=C/C(=O)OCC(=O)Nc2cccnc2Cl)cc1    inactive
14  C=CC[C@@H](CC(=O)N[C@H](CO)Cc1ccccc1)C(=O)N[C@H](C)COC(=O)[C@@H](CC=C)Cc1ccc(F)cc1    inactive
15     Cc1cc(NC(=O)CSc2nc3ccccc3n2CC(C)C)no1    inactive
16               Oc1ccc(Br)cc1/C=N/Nc1ccccn1      active
17  Cc1ccc(NC(=O)COc2ccc(/C=C3/NC(=O)NC3=O)cc2)cc1    inactive
18  COC(=O)C1=C(O)/C(=C/c2ccc(OCC(=O)Nc3ccccc3)cc2)N=C1C    inactive
19  CC(C)(C)c1cc(P(=O)(c2ccccc2)c2ccccc2)ccc1O    inactive
20  O=C(NC(=S)Nc1ccc2oc(=O)ccc2c1)c1ccc(-c2cccc(Cl)c2Cl)o1      active
